target: Human immunodeficiency virus type 1 protease (Human immunodeficiency virus 1, UniProt Q72874, G48V/I54V/L10I/L63P/V82A); assay: Inhibition of HIV1 protease L10I/G48V/I54V/L63P/V82A mutant
Would you kindly list pKi for each of these compounds?
// pKi is dimensionless: -log10 of concentration (M)

Asked: pKi lookup needed for CC(C)CN(C[C@@H](O)[C@H](Cc1ccccc1)NC(=O)[C@@H]1CN(c2cccc(C(F)(F)F)c2)C(=O)O1)S(=O)(=O)c1ccc(N)cc1 , thanks.
Given back: 8.35

Asked: And for CC(=O)c1cccc(N2C[C@@H](C(=O)N[C@@H](Cc3ccccc3)[C@H](O)CN(CC(C)C)S(=O)(=O)c3ccc4c(c3)OCO4)OC2=O)c1 ?
Given back: 9.14

Asked: And for COc1ccc(S(=O)(=O)N(CC(C)C)C[C@@H](O)[C@H](Cc2ccccc2)NC(=O)[C@@H]2CN(c3cccc(C(C)=O)c3)C(=O)O2)cc1 ?
Given back: 9.80

====

target: Human immunodeficiency virus type 1 protease (Human immunodeficiency virus 1, UniProt Q72874, Q7K); test: Inhibition of wild type HIV1 protease Q7K mutant
pKi: −log10 of the molar value.
Please note: True applies when pKi is 10 or greater, and False applies otherwise.

Asked: Hi, just wondering whether CC(=O)c1cccc(N2C[C@@H](C(=O)N[C@@H](Cc3ccccc3)[C@H](O)CN(CC(C)C)S(=O)(=O)c3ccc4c(c3)OCO4)OC2=O)c1 shows pKi of 10 or higher.
Given back: True

Asked: And for O=C(N[C@@H](Cc1ccccc1)[C@H](O)CN(Cc1cccs1)S(=O)(=O)c1cc(F)c(F)cc1F)[C@@H]1CN(c2ccccc2)C(=O)O1 ?
Given back: False

Asked: And for CC(=O)c1ccc(N2C[C@@H](C(=O)N[C@@H](Cc3ccccc3)[C@H](O)CN(CC(C)C)S(=O)(=O)c3ccc4c(c3)OCO4)OC2=O)cc1 ?
Given back: True

Asked: And for COc1cccc(S(=O)(=O)N(CC2CCCO2)C[C@@H](O)[C@H](Cc2ccccc2)NC(=O)[C@@H]2CN(c3ccccc3)C(=O)O2)c1 (single isomer, unassigned) ?
Given back: False

====

target: Human immunodeficiency virus type 1 protease (Human immunodeficiency virus 1, UniProt Q72874, D30N/L63P/N88D); assay: Inhibition of HIV1 protease D30N/L63P/N88D mutant
measurementType: Ki (nM)
Numbers only; they are read as nM.

Asked: Ki lookup needed for CC(=O)c1cccc(N2C[C@@H](C(=O)N[C@@H](Cc3ccccc3)[C@H](O)CN(CC(C)C)S(=O)(=O)c3ccc4c(c3)OCO4)OC2=O)c1 , thanks.
Given back: 0.235

Asked: And for CC(C)CN(C[C@@H](O)[C@H](Cc1ccccc1)NC(=O)[C@@H]1CN(c2cccc(C(F)(F)F)c2)C(=O)O1)S(=O)(=O)c1ccc(N)cc1 ?
Given back: 0.36

Asked: And for COc1ccc(S(=O)(=O)N(CC(C)C)C[C@@H](O)[C@H](Cc2ccccc2)NC(=O)[C@@H]2CN(c3cccc(F)c3)C(=O)O2)cc1 ?
Given back: 0.08

Asked: And for COc1ccc(S(=O)(=O)N(CC(C)C)C[C@@H](O)[C@H](Cc2ccccc2)NC(=O)[C@@H]2CN(c3cccc(C(C)=O)c3)C(=O)O2)cc1 ?
Given back: 0.039

Asked: And for COc1ccc(S(=O)(=O)N(CC(C)C)C[C@@H](O)[C@H](Cc2ccccc2)NC(=O)[C@@H]2CN(c3ccc(F)c(F)c3)C(=O)O2)cc1 ?
Given back: 0.152

Asked: And for COc1ccc(S(=O)(=O)N(CC(C)C)C[C@@H](O)[C@H](Cc2ccccc2)NC(=O)[C@@H]2CN(c3ccc(C(C)=O)cc3)C(=O)O2)cc1 ?
Given back: 0.179

Asked: And for CC(C)CN(C[C@@H](O)[C@H](Cc1ccccc1)NC(=O)[C@@H]1CN(c2ccccc2)C(=O)O1)S(=O)(=O)c1ccc(N)cc1 ?
Given back: 0.92

====

target: Human immunodeficiency virus type 1 protease (Human immunodeficiency virus 1, UniProt Q72874, Q7K); assay: Inhibition of wild type HIV1 protease Q7K mutant
measurementType: Ki (nM)
Numbers only; they are read as nM.

Asked: Ki lookup needed for CC(=O)c1cccc(N2C[C@@H](C(=O)N[C@@H](Cc3ccccc3)[C@H](O)CN(CC(C)C)S(=O)(=O)c3ccc(OC(F)(F)F)cc3)OC2=O)c1 , thanks.
Given back: 2

Asked: And for CC(=O)c1ccc(N2C[C@@H](C(=O)N[C@@H](Cc3ccccc3)[C@H](O)CN(Cc3cccs3)S(=O)(=O)c3cc(F)c(F)cc3F)OC2=O)cc1 ?
Given back: 168

Asked: And for CC(C)CN(C[C@@H](O)[C@H](Cc1ccccc1)NC(=O)[C@@H]1CN(c2ccc(F)c(F)c2)C(=O)O1)S(=O)(=O)c1ccc(N)cc1 ?
Given back: 0.23
